All values here come from patent US8895744B2.

Target: BaF3 cells transformed with the oncogenic fusion protein NPM/ALK (Homo sapiens)
Construct: fused on or other part: P06748 (Nucleophosmin)
Sequence (Q9UM73 whole entry, change not shown, the tested form may be a part): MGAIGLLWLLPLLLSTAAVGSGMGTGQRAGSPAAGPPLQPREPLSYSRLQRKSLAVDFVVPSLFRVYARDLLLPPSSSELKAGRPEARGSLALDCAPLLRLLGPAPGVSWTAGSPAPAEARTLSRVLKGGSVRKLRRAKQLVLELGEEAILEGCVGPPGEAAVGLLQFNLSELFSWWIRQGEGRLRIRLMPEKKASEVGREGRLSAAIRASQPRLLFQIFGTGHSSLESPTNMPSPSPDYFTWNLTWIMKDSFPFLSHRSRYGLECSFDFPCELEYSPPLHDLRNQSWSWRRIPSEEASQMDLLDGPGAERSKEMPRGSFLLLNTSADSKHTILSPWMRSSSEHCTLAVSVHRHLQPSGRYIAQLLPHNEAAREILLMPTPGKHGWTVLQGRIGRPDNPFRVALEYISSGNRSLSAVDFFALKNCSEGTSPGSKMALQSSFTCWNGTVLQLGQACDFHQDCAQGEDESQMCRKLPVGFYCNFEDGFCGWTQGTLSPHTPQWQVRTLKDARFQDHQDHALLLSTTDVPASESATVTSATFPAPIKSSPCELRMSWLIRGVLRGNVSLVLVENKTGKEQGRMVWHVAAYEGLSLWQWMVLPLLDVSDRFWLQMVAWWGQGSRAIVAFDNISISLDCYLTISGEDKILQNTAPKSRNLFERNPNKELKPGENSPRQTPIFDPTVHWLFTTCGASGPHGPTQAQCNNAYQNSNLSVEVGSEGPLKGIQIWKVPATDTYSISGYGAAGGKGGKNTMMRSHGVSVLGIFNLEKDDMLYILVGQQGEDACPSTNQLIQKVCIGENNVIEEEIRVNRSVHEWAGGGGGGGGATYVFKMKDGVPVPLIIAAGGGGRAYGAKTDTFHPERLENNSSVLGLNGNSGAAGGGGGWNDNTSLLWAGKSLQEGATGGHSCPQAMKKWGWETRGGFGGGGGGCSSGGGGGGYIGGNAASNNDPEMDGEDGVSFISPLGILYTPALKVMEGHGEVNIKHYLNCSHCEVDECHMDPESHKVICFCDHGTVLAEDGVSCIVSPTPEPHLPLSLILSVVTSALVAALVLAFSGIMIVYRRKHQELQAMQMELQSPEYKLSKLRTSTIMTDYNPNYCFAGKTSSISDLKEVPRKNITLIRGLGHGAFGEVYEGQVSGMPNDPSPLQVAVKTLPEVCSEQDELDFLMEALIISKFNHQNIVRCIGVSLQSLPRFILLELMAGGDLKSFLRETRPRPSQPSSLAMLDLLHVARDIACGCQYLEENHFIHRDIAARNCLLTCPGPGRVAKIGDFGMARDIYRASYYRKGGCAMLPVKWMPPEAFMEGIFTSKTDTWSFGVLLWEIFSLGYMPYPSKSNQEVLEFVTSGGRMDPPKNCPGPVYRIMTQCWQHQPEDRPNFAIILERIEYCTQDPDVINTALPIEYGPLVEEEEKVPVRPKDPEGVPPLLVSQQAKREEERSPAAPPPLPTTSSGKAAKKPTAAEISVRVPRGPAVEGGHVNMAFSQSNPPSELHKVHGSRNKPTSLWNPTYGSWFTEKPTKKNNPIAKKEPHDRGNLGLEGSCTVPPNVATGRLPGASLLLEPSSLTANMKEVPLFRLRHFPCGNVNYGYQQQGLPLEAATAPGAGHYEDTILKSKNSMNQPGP
Experiment: Tritiated thymidine uptake cell proliferation assay, BaF3 NPM/ALK
Format: cell-based
Conditions: 3[H]-thymidine uptake, 72 h; read-out: BaF NPM/ALK IC50
Reported values of GI50 for individual entries
Give just the number in nM; leave the unit off.

[
  {
    "smiles text": "COc1cccc(Nc2ccnc3[nH]c4ccccc4c23)c1",
    "GI50 [nM]": 3800
  },
  {
    "smiles text": "CCN(CC)CCSCC(=O)c1ccc2[nH]c3ncc(Cl)cc3c2c1",
    "GI50 [nM]": 500
  }
]

Now let's try a different one.
Dear colleague, I am looking for the recorded GI50 of the following molecule: CCN(CC)CCCOc1ccc(-c2ccc3[nH]c4ncc(/C=C/c5ccccc5)cc4c3c2)cc1 500

====

Tested on: parent untransformed BaF3 cells
Assay: Tritiated thymidine uptake cell proliferation assay, parental BaF3 (control)
Type: cell-based
Conditions: Mus musculus, 3[H]-thymidine uptake, 72 h, medium with IL-3, read-out: BaF parental IC50
experimental endpoint: pIC50
pIC50 is defined as minus the log10 of a concentration measured in mol/L.

Example compounds with recorded pIC50:
[
  {
    "compound": "Clc1cnc2[nH]c3ccc(-c4ccc(N5CCOCC5)cn4)cc3c2c1 [R308]",
    "measured on": "parent untransformed BaF3 cells",
    "pIC50": 4.30
  },
  {
    "compound": "CCN(CC)CCCOc1ccc(-c2ccc3[nH]c4ncc(C=Cc5ccccc5)cc4c3c2)cc1 [R340]",
    "measured on": "parent untransformed BaF3 cells",
    "pIC50": 6.00
  },
  {
    "compound": "O=C(CSc1ccccn1)c1ccc2[nH]c3ncc(Cl)cc3c2c1 [R272]",
    "measured on": "parent untransformed BaF3 cells",
    "pIC50": 5.70
  },
  {
    "compound": "CCN(CC)CCSCC(=O)c1ccc2[nH]c3nc(Nc4cccc([N+](=O)[O-])c4)ccc3c2c1 [R321]",
    "measured on": "parent untransformed BaF3 cells",
    "pIC50": 6.15
  },
  {
    "compound": "CN1CCN(C(=O)CCC(=O)c2ccc3[nH]c4ncc(Cl)cc4c3c2)CC1 [R303]",
    "measured on": "parent untransformed BaF3 cells",
    "pIC50": 5.02
  }
]

Read the next record carefully.
Item under review: O=C(CSc1ccccc1)c1ccc2[nH]c3ncc(Cl)cc3c2c1 [R275] . Reported pIC50? 5.70

====

In this section, each of the compounds is paired with its reported IC50.
Molecular target: Recombinant ALK kinase (Homo sapiens)
Construct: made in house; host or cells: Sf9 insect cells (baculovirus)
Experiment: ALK kinase inhibitory activity, ELISA-based in vitro kinase assay
Type: biochemical
Details: purified rALK, 0.3 mM ATP, read-out: ALK IC50
Reply numerically in µM, unit not repeated.

[
  {
    "compound": "CN1CCN(C(=O)CCC(=O)c2ccc3[nH]c4ncc(Cl)cc4c3c2)CC1 [R303]",
    "data value": 93
  }
]

Can you look up the measured IC50 of CC(=O)c1ccc2[nH]c3nc(C)ccc3c2c1 [R242, 6-acetyl-2-methyl-9H-pyrido[2,3-b]indole] for me? 87.1

Sample Oc1cnc2[nH]c3ccc(CCc4ccccc4)cc3c2c1 [R276] — what was its IC50? 0.5

Requested field: IC50. Item: CNCC(=O)c1ccc2[nH]c3ncccc3c2c1 [R245] 82.4

What IC50 value was documented for this compound, COc1ccc(-c2ccc3[nH]c4ncc(/C=C/c5ccccc5)cc4c3c2)cc1 [R315] ? 1.1

Fill in the blank: the reported IC50 of CCN(CC)CCSCC(=O)c1ccc2[nH]c3nc(Cl)ccc3c2c1 [R305] is ____. 17

====

Target: BaF3 cells transformed with the oncogenic fusion protein NPM/ALK (Homo sapiens)
Construct: fused on or other part: P06748 (Nucleophosmin)
Test: Tritiated thymidine uptake cell proliferation assay, BaF3 NPM/ALK
Type: cell-based
Details: 3[H]-thymidine uptake, 72 h; read-out: BaF NPM/ALK IC50
The reader will find reported GI50 values listed item by item below.

Previously resolved entries follow.
[
  {
    "smiles text": "COc1ccc(/C=C/c2ccc3[nH]c4ncc(Cl)cc4c3c2)cc1",
    "data value": "> 100 µM"
  },
  {
    "smiles text": "COc1ccc(-c2cnc3[nH]c4ccccc4c3c2)cc1",
    "data value": "> 50 µM"
  }
]

Now for the compound whose GI50 we want.
Quick one: GI50 for COc1ccc(-c2ccc3c(n2)[nH]c2ccccc23)cc1 ? > 100 µM

====

Tested on: parent untransformed BaF3 cells
Experiment: Tritiated thymidine uptake cell proliferation assay, parental BaF3 (control)
Format: cell-based
Conditions: Mus musculus, 3[H]-thymidine uptake, 72 h, medium with IL-3, read-out: BaF parental IC50
experimental endpoint: IC50

Hi! What's the reported IC50 for c1ccc(-c2ccc(-c3ccnc4[nH]c5ccccc5c34)cc2)cc1 on parent untransformed BaF3 cells? > 100 µM

Test system parent untransformed BaF3 cells; read-out IC50; what value for O=C(NCCc1ccc2[nH]c3ncc(Cl)cc3c2c1)c1ccccc1 ? > 25 µM

Form: Entry = c1coc(-c2ccnc3[nH]c4ccccc4c23)c1 [R327, 4-(furan-2-yl)-9H-pyrido[2,3-b]indole] | System = parent untransformed BaF3 cells | IC50 = ____ > 100 µM

What is its IC50 for parent untransformed BaF3 cells? Entry: O=[N+]([O-])c1ccccc1Nc1ccnc2[nH]c3ccccc3c12 > 100 µM

====

Biological target: Recombinant ALK kinase (Homo sapiens, UniProt Q9UM73)
Construct: made in house; host or cells: Sf9 insect cells (baculovirus)
Sequence (Q9UM73 19-1620): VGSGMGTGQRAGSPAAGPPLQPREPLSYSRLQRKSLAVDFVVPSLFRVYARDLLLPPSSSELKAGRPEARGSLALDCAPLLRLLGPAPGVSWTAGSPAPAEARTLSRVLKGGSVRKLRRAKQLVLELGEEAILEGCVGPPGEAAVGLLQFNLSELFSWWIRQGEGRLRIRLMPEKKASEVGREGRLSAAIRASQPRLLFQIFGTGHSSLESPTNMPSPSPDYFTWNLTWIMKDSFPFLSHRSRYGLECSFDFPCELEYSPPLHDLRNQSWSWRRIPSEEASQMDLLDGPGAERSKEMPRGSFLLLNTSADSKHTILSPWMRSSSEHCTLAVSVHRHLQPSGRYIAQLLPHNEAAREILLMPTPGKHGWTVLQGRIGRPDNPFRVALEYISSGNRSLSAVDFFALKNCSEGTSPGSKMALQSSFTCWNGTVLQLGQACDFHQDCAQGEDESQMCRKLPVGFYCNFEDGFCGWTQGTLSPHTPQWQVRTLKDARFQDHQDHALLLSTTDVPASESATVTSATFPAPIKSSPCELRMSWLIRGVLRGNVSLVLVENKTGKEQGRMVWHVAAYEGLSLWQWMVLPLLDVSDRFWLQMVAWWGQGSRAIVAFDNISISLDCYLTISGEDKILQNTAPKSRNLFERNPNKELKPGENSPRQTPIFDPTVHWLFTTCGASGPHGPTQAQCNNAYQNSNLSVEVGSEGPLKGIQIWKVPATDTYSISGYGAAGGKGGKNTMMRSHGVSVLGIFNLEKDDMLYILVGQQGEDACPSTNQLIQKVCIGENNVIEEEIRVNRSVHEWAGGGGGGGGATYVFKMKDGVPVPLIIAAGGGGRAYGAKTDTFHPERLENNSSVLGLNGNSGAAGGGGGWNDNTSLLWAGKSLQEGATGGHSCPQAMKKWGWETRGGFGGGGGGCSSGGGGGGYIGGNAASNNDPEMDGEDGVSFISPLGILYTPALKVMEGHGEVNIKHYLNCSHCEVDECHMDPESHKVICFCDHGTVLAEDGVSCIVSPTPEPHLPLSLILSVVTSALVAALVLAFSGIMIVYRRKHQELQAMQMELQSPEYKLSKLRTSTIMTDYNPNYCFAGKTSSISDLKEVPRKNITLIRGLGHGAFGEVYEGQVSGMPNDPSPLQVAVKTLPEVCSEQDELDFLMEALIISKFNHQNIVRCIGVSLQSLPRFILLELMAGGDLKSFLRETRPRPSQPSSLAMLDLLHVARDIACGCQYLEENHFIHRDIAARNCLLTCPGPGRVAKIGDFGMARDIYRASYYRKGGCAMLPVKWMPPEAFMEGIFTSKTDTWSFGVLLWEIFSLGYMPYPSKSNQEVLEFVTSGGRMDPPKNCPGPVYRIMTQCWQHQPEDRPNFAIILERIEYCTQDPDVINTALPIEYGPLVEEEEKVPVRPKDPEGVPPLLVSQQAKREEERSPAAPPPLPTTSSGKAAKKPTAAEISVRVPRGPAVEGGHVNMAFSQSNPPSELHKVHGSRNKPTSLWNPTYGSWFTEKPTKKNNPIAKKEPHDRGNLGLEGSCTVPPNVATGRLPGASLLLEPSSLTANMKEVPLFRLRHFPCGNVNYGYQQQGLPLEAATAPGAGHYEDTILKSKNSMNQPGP
Experiment: ALK kinase inhibitory activity, ELISA-based in vitro kinase assay
Format: biochemical
Conditions: purified rALK, 0.3 mM ATP, read-out: ALK IC50
Recorded pIC50, one value per entry.
Scale explanation: pIC50 corresponds to minus log10 of a concentration expressed in moles per litre.

Completed entries (count: 4):
[
  {
    "molecule": "CCN(CC)CCCOc1ccc(-c2ccc3[nH]c4ncc(Cl)cc4c3c2)cc1 [R337]",
    "pIC50": 4.51
  },
  {
    "molecule": "Clc1cnc2[nH]c3ccc(-c4ccc(CN5CCOCC5)cc4)cc3c2c1 [R313]",
    "pIC50": 5.06
  },
  {
    "molecule": "O=C(CSc1ccccc1)c1ccc2[nH]c3ncc(Cl)cc3c2c1 [R275]",
    "pIC50": 4.70
  },
  {
    "molecule": "CCN(CC)CCSCC(=O)c1ccc2[nH]c3nc(Nc4cccc([N+](=O)[O-])c4)ccc3c2c1 [R321]",
    "pIC50": 4.74
  }
]

Entry O=C(CBr)c1ccc2[nH]c3ncc(Cl)cc3c2c1 [R251] : reported pIC50 = ? 5.01

====

melting point: recorded values

[
  {
    "compound": "c1coc(-c2ccc3c(n2)[nH]c2ccccc23)c1 [R326, 2-(furan-2-yl)-9H-pyrido[2,3-b]indole]",
    "data value": "208 to 210 °C"
  },
  {
    "compound": "O=S(=O)(c1ccccc1)n1c2ccc(Br)cc2c2ccc(Cl)nc21",
    "data value": "204 to 206 °C"
  },
  {
    "compound": "O=C(O)CCC(=O)c1ccc2[nH]c3nc(Cl)ccc3c2c1",
    "data value": "280.8 °C"
  },
  {
    "compound": "O=S(=O)(c1ccccc1)n1c2ccc(Br)cc2c2c(Cl)ccnc21",
    "data value": "212 to 214 °C"
  },
  {
    "compound": "COc1ccc(-c2cnc3[nH]c4ccccc4c3c2)cc1",
    "data value": "> 220 °C"
  }
]

Bench note: what melting point did COc1ccc(-c2ccc3c(c2)c2ccc(/C=C/c4ccccc4)nc2n3S(=O)(=O)c2ccccc2)cc1 show? 193 to 195 °C

Requested read-out: melting point. Entry: O=[N+]([O-])c1cccc(-c2ccnc3[nH]c4ccccc4c23)c1 [R331, 4-(3-nitrophenyl)-9H-pyrido[2,3-b]indole] > 220 °C

Endpoint output: melting point of O=S(=O)(c1ccccc1)n1c2ccc(/C=C/c3ccccc3)cc2c2cc(Cl)cnc21 . Value? 190 to 192 °C

====

pIC50 for assorted molecules
Tested on: parent untransformed BaF3 cells
Assay: Tritiated thymidine uptake cell proliferation assay, parental BaF3 (control)
Type: cell-based
Details: Mus musculus, 3[H]-thymidine uptake, 72 h, medium with IL-3, read-out: BaF parental IC50
pIC50: −log10 of the molar value.

[
  {
    "smiles text": "O=C(CSc1cccc(Br)c1)c1ccc2[nH]c3ncc(Cl)cc3c2c1",
    "pIC50": "< 4.30"
  },
  {
    "smiles text": "Clc1cnc2[nH]c3ccc(CCc4ccccc4)cc3c2c1",
    "pIC50": "< 4.00"
  },
  {
    "smiles text": "COc1ccc(-c2ccc3c(n2)[nH]c2ccccc23)cc1",
    "pIC50": "< 4.00"
  }
]

Consider the molecule COc1ccc(/C=C/c2ccc3[nH]c4ncc(Cl)cc4c3c2)cc1 and give its measured pIC50. < 4.00
